Measured TGI, listed per entry.
- Test system: CAKI-1 renal
- ASSAY EXPLANATION: NCI tumour cell line growth inhibition, 48 h

Ask | Request the reported TGI associated with Clc1cccc(Cl)c1C1CSc2ccccc2N=C1c1ccccc1 (configuration not stated)
Reply | 29.8 µM

Ask | Fill blank: measured TGI of the compound CCOC(=O)n1cc(C2=C(c3cn(C)c4ccccc34)COC2=O)c2ccccc21 is ____.
Reply | 18.5 µM

Ask | Which measured TGI value corresponds to COC1=CCC=C(C[C@@H]2NCCc3cc(OC)c(OC)cc32)C1 ?
Reply | > 100 µM

Ask | Recorded TGI of COc1ccc2c(c1)[nH]c(=O)c1c3cc(OC)ccc3cn21 , please.
Reply | < 0.01 µM

Ask | Dear colleague, I am looking for the recorded TGI of the following compound: CC(C)(C)Nc1noc(=O)n1C(C)(C)C
Reply | > 100 µM

Ask | Name the recorded TGI for OC1CCOc2ccccc21 (configuration not stated) .
Reply | > 100 µM

Next:
Ask | # query: TGI of entry Nc1nc2c(s1)CCc1c-2c(Br)n(Cc2ccccc2)c1Br
Reply | 12.1 µM

Ask | Would you mind telling me what TGI value was observed for O=C1NC(=O)C2(CCCCCC2)N1 ?
Reply | > 100 µM
